Here is a set of molecules with reported IC50 for Vascular endothelial growth factor receptor 2 (Homo sapiens), compiled from the literature.
Property label: IC50 (nM)

[[record]]
line_notation = "CONC(=O)c1cc(Nc2ncnn3cc(NC(=O)OCCCN4CCCCC4)c(C(C)C)c23)c(F)cc1F"
property_label = "IC50"
quantitative_readout = 79

[[record]]
line_notation = "COc1cc2c(Nc3ccc(C#N)cc3F)ncnc2cc1OC/C=C/CN1CCCC1"
property_label = "IC50"
quantitative_readout = 230

[[record]]
line_notation = "COc1cc2ncnc(Nc3cc(Cl)ccc3Cl)c2cc1OCCCC(=O)NO"
property_label = "IC50"
quantitative_readout = 2140

[[record]]
line_notation = "N#Cc1cnc(Nc2cc(NC[C@H]3CNCCO3)c(C(F)(F)F)cn2)cn1"
property_label = "IC50"
quantitative_readout = 2100


I = Fc1cc(Nc2nnc(Cc3ccncc3)c3ccccc23)cc(C(F)(F)F)c1
II = Cc1cc(-c2ccccc2Cl)cc2nnc(Nc3ccc(OCCN4CCCC4)cc3)nc12
III = CCS(=O)(=O)c1ccc2c(c1)/C(=C/c1[nH]c3c(c1CCC(N)=O)CCCC3)C(=O)N2
IV = Nc1c(C(=O)c2cc3cc(CN4CCOCC4)ccc3[nH]2)cnn1-c1cc(O)ccc1Cl
V = O=C(Cn1c(=O)c2nncn2c2ccccc21)Nc1ccc(C(=O)Nc2cc(Cl)ccc2Cl)cc1
*Q* I would appreciate it if you could sort these 5 molecules by IC50, starting from the smallest number. The reply should contain the labels ordered as requested.
*A* IV, V, I, III, II

* * *

Below are IC50 measurements against Vascular endothelial growth factor receptor 2 (Homo sapiens, UniProt P35968) drawn from the literature.
Sequence (P35968 whole entry): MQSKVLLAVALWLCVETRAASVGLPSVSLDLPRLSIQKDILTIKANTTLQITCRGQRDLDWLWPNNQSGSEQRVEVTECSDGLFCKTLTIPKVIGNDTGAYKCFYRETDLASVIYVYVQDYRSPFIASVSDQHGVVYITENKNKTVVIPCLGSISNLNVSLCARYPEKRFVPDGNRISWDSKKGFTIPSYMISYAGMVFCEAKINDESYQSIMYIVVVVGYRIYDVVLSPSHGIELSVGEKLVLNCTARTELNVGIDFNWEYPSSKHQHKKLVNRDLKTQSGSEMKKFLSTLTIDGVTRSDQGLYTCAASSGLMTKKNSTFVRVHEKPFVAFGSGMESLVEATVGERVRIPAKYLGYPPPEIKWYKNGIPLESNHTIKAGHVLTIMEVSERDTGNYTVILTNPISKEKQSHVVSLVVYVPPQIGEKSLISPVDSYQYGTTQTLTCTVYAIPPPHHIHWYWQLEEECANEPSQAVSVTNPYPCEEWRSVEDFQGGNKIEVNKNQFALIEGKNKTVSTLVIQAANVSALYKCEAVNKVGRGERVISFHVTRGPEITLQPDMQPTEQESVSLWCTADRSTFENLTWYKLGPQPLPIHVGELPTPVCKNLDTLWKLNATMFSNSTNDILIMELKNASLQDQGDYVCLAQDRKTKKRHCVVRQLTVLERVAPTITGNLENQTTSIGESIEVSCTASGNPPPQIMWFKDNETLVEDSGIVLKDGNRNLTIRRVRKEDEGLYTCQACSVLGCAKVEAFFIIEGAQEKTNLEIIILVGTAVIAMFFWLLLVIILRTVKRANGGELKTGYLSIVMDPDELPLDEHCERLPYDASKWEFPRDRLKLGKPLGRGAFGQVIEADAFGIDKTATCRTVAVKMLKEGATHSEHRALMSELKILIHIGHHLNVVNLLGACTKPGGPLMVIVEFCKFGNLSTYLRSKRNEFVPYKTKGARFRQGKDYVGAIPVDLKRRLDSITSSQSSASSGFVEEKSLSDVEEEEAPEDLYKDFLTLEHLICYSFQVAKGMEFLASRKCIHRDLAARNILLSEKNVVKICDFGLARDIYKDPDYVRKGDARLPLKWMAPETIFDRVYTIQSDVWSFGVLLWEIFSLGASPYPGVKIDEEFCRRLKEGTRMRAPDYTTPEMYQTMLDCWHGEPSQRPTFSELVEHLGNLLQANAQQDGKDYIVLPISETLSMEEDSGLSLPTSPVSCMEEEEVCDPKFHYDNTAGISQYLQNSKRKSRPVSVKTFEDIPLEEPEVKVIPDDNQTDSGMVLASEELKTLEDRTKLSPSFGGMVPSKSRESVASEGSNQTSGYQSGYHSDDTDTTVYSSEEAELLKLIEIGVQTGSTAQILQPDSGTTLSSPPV
Property label: IC50 (nM)

Look over these answered cases.
[[record]]
compound = "COc1cc2c(Nc3ccc(-c4nc5ccccc5s4)c(Cl)c3)ncnc2cc1OCCCN1CCN(C)CC1"
tested_system = "Vascular endothelial growth factor receptor 2 (Homo sapiens, UniProt P35968)"
quantitative_readout = 120

[[record]]
compound = "Cn1cnc(-c2cc3nccc(Oc4ccc(NC(=O)c5cnn(C)c5C(F)(F)F)cc4F)c3s2)c1"
tested_system = "Vascular endothelial growth factor receptor 2 (Homo sapiens, UniProt P35968)"
quantitative_readout = 700

[[record]]
compound = "COc1cc2nccc(Oc3ccc4c(C(=O)Nc5ccc(C(F)(F)F)cc5)cccc4c3)c2cc1OC"
tested_system = "Vascular endothelial growth factor receptor 2 (Homo sapiens, UniProt P35968)"
quantitative_readout = 0.5


I = COCCOc1cc2ncnc(Nc3ccc(Cl)cc3F)c2cc1OCCOC
II = Cc1n[nH]c2nccc(-c3ccc(NC(=O)NCCCCc4ccccc4)cc3)c12
*Q* Dear colleague, could you let me know whether I or II has the lower recorded IC50? Thanks. Your choice should be expressed through its label.
*A* I

1 = COc1ccc2c(c1)[C@]1(C[C@H]1c1ccc3c(/C=C/c4ccc(CN(C)C)cc4)n[nH]c3c1)C(=O)N2 (relative stereo)
2 = COc1cc2nccc(Oc3ccc4c(C(=O)NC5CC5)cccc4c3)c2cc1C(C)=O
*Q* Exercise: compare 1 and 2 ; which one has the greater IC50? Use the label to indicate which entry you chose.
*A* 1
(1: 910 nM, 2: 0.372 nM)

* * *

Ok so here's the combined literature set: IC50 for UniProt P35968.
Property label: IC50 (nM)

[[record]]
line_notation = "COc1cc2ncnc(-n3ncc4cc(NC(=O)Nc5ccc(C)c(Cl)c5)ccc43)c2cc1OC"
quantitative_readout = 12

[[record]]
line_notation = "CN(C)CCc1ccc(Nc2ncc(Cl)c(-c3cccc4cc[nH]c34)n2)cc1"
quantitative_readout = 455

[[record]]
line_notation = "CN1C(=O)/C(=C/c2ccc(/C=C/C(=O)NCc3cccnc3)s2)Oc2ccccc21"
quantitative_readout = 1480

[[record]]
line_notation = "Cc1ccsc1C(=O)c1ccc2c(c1)c1c3c(c4c(c1n2CC(C)C)CCc1nn(C)cc1-4)C(=O)NC3"
quantitative_readout = 10

[[record]]
line_notation = "COc1cc2ncnc(Nc3ccc(F)cc3)c2cc1OCCCCCCC(=O)NO"
quantitative_readout = 270

[[record]]
line_notation = "O=C(Nc1cnc2ccccc2c1)c1cccc(Cl)c1O"
quantitative_readout = 72.8

[[record]]
line_notation = "Cc1ccc2nc(Cl)c(/C=C/C(=O)c3ccc(Cl)s3)cc2c1"
quantitative_readout = 107

[[record]]
line_notation = "Cc1ccc(NC(=O)c2cccc(C(F)(F)F)c2C)cc1C(=O)Nc1cnc(Nc2ccc(N3CCN(C)CC3)cc2)nc1"
quantitative_readout = 54

[[record]]
line_notation = "COc1cc2ncnc(Nc3cccc(Cl)c3)c2cc1OCCCCCC(=O)NO"
quantitative_readout = 501

[[record]]
line_notation = "CCc1nccn1CCc1ccc(Nc2ncc(C#N)c(-c3ccc(C(C)(C)N)cc3)n2)cc1"
quantitative_readout = 94


I = COc1cc2nc(Cl)nc(Nc3ccc(NC(C)=O)cc3)c2cc1OC
II = COc1cc2nccc(Oc3ccc4c(C(=O)NC5CCCC5)cccc4c3)c2cc1OC
*Q* Sorting by IC50 in descending order, would I or II appear first? I would appreciate it if you answered with the label of your choice.
*A* I

I = COc1cc2nc(Cl)nc(Nc3ccc(S(N)(=O)=O)cc3)c2cc1OC
II = O=C(Cn1c(-c2ccco2)nc2ccccc21)N/N=C/c1ccccc1Cl
*Q* Compare I and II and name the one whose reported IC50 is smaller. Please respond with the label that marks your chosen entry.
*A* II
